- MEASUREMENT TARGET: Cbl-b (Homo sapiens, UniProt Q13191)
- Sequence (Q13191 36-427): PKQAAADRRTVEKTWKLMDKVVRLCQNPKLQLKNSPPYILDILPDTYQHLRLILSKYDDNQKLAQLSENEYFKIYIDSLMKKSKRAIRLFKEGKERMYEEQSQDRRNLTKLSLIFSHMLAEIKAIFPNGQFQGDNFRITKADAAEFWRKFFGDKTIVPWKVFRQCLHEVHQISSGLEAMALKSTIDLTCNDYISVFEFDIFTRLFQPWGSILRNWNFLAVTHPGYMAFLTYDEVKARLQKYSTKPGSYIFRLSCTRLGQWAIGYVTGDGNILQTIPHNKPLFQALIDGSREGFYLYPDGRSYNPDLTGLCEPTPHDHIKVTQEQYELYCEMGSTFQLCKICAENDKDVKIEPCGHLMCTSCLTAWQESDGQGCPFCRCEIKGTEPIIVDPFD
- PROTOCOL: Cbl-b inhibition assay (Cbl-b activity assay, FRET, Biological Example 1; 100 mM NaCl, 60 nM Src kinase)
- Type: biochemical
- EXPERIMENTAL PARAMETERS: upper bound stated in text lists; read-out: IC50 values in the Cbl-b inhibition assay of Biological Example 1
- Text: FIG. 1A and FIG. 1B show a series of diagrams depicting the activity assay utilized to assay inhibition of Cbl-b activity by a Cbl-b inhibitor. FIG. 1A: The activity assay mixture comprises an N-terminal biotinylated Avi-tagged Cbl-b, an E2 enzyme (i.e., UbcH5B) irreversibly conjugated to Bodipy-Fluorescein tagged ubiquitin (i.e., UbcH5B-Ub), a Src kinase, streptavidin-terbium, and assay buffer. […]
ATTRIBUTE MEASURED: IC50

## Input Item under review: Cn1cnnc1CC1(c2cccc(N3Cc4c(cc(CN5CCC(F)CC5)cc4C4CC4)C3=O)c2)COC1 [Example 552] . Reported IC50?
## Output ≤ 100 nM

## Input // query IC50 value for entry Cn1cnnc1CC1(c2cccc(N3Cc4c(cc(CN5CC[C@@H]6C[C@@H]65)cc4C(F)(F)F)C3=O)c2)COC1 (single isomer, unassigned) [Compound 486b]
## Output ≤ 100 nM

## Input # query: IC50 of entry C[C@H](Sc1nncn1C)c1cccc(NC(=O)c2cc(C(=O)N3CC[C@H](N(C)C)C3)ccn2)c1 [Compound 160]
## Output ≤ 10000 nM

## Input Reported IC50 for Cn1cnnc1C[C@@](C)(F)c1cccc(N2Cc3c(cccc3C(F)(F)F)C2=O)c1 [Compound 298a] : what is it?
## Output ≤ 10000 nM

## Input Name the reported IC50 value associated with the compound Cn1cnnc1CC1(c2cccc(N3Cc4c(cc(CN5CCS(=O)(=O)CC5)cc4C(F)(F)F)C3=O)c2)COC1 [Compound 434]
## Output ≤ 100 nM

These measurements were taken from patent US20220324835A1.
